target_of_assay: PI3Kδ (Homo sapiens)
Sequence (O00329 whole entry): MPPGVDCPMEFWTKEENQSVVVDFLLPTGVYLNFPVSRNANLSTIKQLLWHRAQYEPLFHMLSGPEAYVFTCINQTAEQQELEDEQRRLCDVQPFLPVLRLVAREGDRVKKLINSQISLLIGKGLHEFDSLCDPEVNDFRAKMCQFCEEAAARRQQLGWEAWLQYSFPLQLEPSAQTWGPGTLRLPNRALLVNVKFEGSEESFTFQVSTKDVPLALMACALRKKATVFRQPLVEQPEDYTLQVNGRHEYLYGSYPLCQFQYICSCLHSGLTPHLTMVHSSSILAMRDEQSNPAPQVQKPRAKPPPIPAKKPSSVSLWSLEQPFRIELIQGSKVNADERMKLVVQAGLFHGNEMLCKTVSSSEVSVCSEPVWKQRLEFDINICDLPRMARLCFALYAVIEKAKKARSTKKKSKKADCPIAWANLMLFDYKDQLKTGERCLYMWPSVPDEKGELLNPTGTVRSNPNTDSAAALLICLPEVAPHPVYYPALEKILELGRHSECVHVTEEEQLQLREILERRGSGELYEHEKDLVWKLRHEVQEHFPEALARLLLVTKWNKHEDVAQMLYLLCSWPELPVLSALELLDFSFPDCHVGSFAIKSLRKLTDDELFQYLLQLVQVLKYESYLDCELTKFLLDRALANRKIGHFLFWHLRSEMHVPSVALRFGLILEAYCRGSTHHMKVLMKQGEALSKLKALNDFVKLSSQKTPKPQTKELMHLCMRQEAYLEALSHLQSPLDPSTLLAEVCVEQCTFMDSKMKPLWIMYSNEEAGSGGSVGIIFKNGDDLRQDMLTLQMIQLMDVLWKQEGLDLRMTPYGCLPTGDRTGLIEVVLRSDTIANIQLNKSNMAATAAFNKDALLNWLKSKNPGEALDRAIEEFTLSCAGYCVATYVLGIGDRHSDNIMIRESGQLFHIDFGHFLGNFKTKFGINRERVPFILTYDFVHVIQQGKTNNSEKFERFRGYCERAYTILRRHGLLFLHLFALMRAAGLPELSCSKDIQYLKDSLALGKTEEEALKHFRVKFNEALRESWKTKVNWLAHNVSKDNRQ
Sequence (P27986 whole entry partner): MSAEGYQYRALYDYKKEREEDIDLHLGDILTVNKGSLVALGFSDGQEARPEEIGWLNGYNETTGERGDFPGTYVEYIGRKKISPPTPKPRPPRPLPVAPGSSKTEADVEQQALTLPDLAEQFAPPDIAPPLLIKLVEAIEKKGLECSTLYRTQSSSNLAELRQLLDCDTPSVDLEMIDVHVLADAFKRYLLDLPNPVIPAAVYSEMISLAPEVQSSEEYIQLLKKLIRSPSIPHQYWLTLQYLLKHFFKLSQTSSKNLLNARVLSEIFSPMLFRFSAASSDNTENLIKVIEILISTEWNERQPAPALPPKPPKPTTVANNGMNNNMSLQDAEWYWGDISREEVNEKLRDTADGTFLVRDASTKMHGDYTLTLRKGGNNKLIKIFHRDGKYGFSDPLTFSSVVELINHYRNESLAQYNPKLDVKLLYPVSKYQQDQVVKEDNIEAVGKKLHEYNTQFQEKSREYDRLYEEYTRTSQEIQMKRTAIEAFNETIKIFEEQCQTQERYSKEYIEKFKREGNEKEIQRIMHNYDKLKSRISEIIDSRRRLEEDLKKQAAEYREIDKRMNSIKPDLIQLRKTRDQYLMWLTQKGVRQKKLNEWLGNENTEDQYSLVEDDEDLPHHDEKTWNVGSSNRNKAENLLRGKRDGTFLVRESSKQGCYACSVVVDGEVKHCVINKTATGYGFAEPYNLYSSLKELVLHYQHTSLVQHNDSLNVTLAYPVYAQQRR
method_notes: PI3Kδ molecular activity test (ADP-GLO)
experimental_setup: recombinant protein
Listing of recorded IC50 by entry.

[
  {
    "compound": "COc1c(O)ccc2c(=O)n(C)c(NC(=O)c3cnc(N)nc3)nc12",
    "IC50": "20 to 200 nM"
  }
]

Recorded IC50 of CCn1c(NC(=O)c2ccc(N)nc2)nc2c(OC)c(OCC(=O)NCCN3CCOCC3)ccc2c1=O , please.
200 to 1000 nM

Recorded IC50 of COc1c(OCCC(N)=O)ccc2c(=O)n(C)c(NC(=O)c3cnc(N)nc3)cc12 , please.
20 to 200 nM

Recorded IC50 of COc1c(OCC(N)=O)ccc2c(=O)n(C)c(NC(=O)c3cnc(N)nc3)nc12 , please.
< 20 nM

Recorded IC50 of Cn1c(NC(=O)c2cnc(N)nc2)cc2c3c(ccc2c1=O)OCCCCO3 [14a′-4] , please.
20 to 200 nM

Recorded IC50 of COc1c(OCCCN2CCOCC2)ccc2c(=O)n(C)c(NC(=O)c3ccc(N)nc3)nc12 , please.
20 to 200 nM

----------
Listing of recorded pIC50 by entry.
target_of_assay: UniProt P42336
Sequence (P42336 whole entry): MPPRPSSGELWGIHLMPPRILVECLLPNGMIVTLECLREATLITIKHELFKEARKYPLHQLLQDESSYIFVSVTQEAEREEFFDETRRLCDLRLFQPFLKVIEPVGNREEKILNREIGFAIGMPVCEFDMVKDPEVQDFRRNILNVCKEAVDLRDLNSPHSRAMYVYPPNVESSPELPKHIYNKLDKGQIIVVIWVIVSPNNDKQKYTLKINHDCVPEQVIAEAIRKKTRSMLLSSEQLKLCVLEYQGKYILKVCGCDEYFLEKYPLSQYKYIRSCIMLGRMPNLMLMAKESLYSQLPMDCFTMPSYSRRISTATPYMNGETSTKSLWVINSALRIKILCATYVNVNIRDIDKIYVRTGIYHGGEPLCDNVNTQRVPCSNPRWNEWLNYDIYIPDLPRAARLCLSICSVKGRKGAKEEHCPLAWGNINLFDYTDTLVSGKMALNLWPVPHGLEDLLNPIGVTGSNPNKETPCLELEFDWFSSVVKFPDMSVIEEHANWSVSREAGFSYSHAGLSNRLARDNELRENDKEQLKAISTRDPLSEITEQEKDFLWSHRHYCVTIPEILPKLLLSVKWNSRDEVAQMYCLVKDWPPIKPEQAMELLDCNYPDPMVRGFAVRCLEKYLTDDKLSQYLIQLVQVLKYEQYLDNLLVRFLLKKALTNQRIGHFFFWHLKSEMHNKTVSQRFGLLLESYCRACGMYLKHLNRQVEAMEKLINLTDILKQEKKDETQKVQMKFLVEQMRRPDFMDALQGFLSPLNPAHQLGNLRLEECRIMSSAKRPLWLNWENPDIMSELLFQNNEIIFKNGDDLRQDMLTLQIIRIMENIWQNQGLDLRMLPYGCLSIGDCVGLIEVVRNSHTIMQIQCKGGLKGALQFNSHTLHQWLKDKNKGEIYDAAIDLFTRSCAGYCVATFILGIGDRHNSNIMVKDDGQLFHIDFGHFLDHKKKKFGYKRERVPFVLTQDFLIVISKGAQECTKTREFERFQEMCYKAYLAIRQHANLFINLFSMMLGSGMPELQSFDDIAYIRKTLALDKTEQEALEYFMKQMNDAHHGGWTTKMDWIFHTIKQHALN
Sequence (P27986 whole entry partner): as the sequence (P27986 whole entry partner) above
method_notes: PI3Kα molecular activity test (ADP-GLO)
experimental_setup: recombinant protein, 100 μM ATP, 2 hours at room temperature
pIC50: −log10 of the molar value.

[
  {
    "molecule": "COc1c(OCC(=O)N2CCOCC2)ccc2c(=O)n(C)c(NC(=O)c3cnc(N)nc3)nc12 [8a-8]",
    "pIC50": "> 7.70"
  }
]

Recorded pIC50 of CCn1c(NC(=O)c2cnc(N)nc2)nc2c(OC)c(OCCS(N)(=O)=O)ccc2c1=O [8b-11] , please.
> 7.70

Recorded pIC50 of Cn1c(NC(=O)c2cnc(N)nc2)cc2c3c(ccc2c1=O)OCCOCCOCCOCCO3 [14a′-7] , please.
> 7.70

Recorded pIC50 of COc1c(OCCCN2CCOCC2)ccc2c(=O)n(C)c(NC(=O)c3ccnnc3)nc12 [8a-15] , please.
> 7.70

Recorded pIC50 of CCn1c(NC(=O)c2cnc(N)nc2)cc2c3c(ccc2c1=O)OCCO3 [14b′-2] , please.
> 7.70

Recorded pIC50 of COc1c(O)ccc2c(=O)n(CC(F)(F)F)c(NC(=O)c3cnc(N)nc3)nc12 [7e] , please.
6.70 to 7.70

Recorded pIC50 of COc1c(OCCNS(C)(=O)=O)ccc2c(=O)n(C)c(NC(=O)c3ccc(N)nc3)nc12 [8a-40] , please.
> 7.70

Recorded pIC50 of CCn1c(NC(=O)c2cncnc2)nc2c(OC)c(OCCCN3CCOCC3)ccc2c1=O [8b-14] , please.
6.70 to 7.70

Recorded pIC50 of CCn1c(NC(=O)c2cnc(N)nc2)cc2c(OC)c(OCCC(N)=O)ccc2c1=O [8b′-3] , please.
> 7.70

Recorded pIC50 of Cn1c(NC(=O)c2cnc(N)nc2)nc2c3c(ccc2c1=O)OCCCCCCCCO3 [14a-8] , please.
> 7.70

Recorded pIC50 of COc1c(OCC(N)=O)ccc2c(=O)n(C3CC3)c(NC(=O)c3cnc(N)nc3)nc12 [8d-2] , please.
6.70 to 7.70

Recorded pIC50 of CCOC(=O)COc1ccc2c(=O)n(C)c(NC(=O)c3cnc(N)nc3)nc2c1OC [8a-29] , please.
> 7.70

Recorded pIC50 of COc1c(OCCCN2CCOCC2)ccc2c(=O)n(C)c(NC(=O)c3cncnc3)nc12 [8a-14] , please.
> 7.70

Recorded pIC50 of CCn1c(NC(=O)c2cnc(N)nc2)nc2c(OC)c(OCC(C)NS(C)(=O)=O)ccc2c1=O (stereo not drawn) [8b-30] , please.
> 7.70

Recorded pIC50 of CCn1c(NC(=O)c2cnc(N)nc2)nc2c(OC)c(O)ccc2c1=O [7b] , please.
> 7.70

Recorded pIC50 of CCn1c(NC(=O)c2cnc(N)nc2)cc2c3c(ccc2c1=O)OCCCCO3 [14b′-4] , please.
6.70 to 7.70

Recorded pIC50 of COc1c(OCC(N)=O)ccc2c(=O)n(C)c(NC(=O)c3cnc(N)nc3)nc12 [8a-2] , please.
> 7.70

Recorded pIC50 of CCn1c(NC(=O)c2ccc(N)nc2)nc2c(OC)c(OCC(=O)NCCN3CCOCC3)ccc2c1=O [8b-48] , please.
> 7.70
